Data provenance: ChEMBL document CHEMBL4813985

System: Candida albicans
Test: Antifungal activity against fluconazole-resistant Candida albicans 901 assessed as inhibition of microbial growth after 24 hrs by broth microdilution method
Assay type: functional
I'd be grateful if you could share measured MIC for these entries.

Challenge: Using the record for COc1ccc([Se]C(Cn2ccnc2)c2ccc(Cl)cc2Cl)cc1 (stereo unspecified) , state its measured MIC.
Response given: 8 µg/mL

Challenge: Note down MIC recorded for Cc1ccc(C[Se]C(Cn2cncn2)c2ccc(Cl)cc2Cl)cc1 (stereo unspecified)
Response given: > 128 µg/mL

Challenge: State its MIC: Clc1ccc(C[Se]C(Cn2cncn2)c2ccc(Cl)cc2Cl)c(Cl)c1 (stereo unspecified)
Response given: > 128 µg/mL

Challenge: Determine from records and report MIC for Cc1cccc(C)c1[Se]C(Cn1ccnc1)c1ccc(F)cc1F (stereo unspecified)
Response given: 2 µg/mL

Challenge: Using known records, supply MIC for Fc1ccc(C(Cn2ccnc2)[Se]c2ccccc2)c(F)c1 (stereo unspecified)
Response given: 2 µg/mL

Challenge: Provide MIC value for the following compound: Cc1ccc([Se]C(Cn2ccnc2)c2ccc(F)cc2F)cc1 (stereo unspecified)
Response given: 8 µg/mL

Challenge: Entry Clc1ccc(C(Cn2ccnc2)[Se]Cc2ccccc2Cl)c(Cl)c1 (stereo unspecified) needs its MIC filled in; supply it.
Response given: 0.5 µg/mL

Challenge: // Input: COc1ccc([Se]C(Cn2ccnc2)c2ccc(F)cc2F)cc1 (stereo unspecified) . Output its MIC only.
Response given: 2 µg/mL

Challenge: Tell me MIC reported for Clc1ccc(C(Cn2cncn2)[Se]Cc2ccccc2)c(Cl)c1 (stereo unspecified)
Response given: > 128 µg/mL

Challenge: Tell us which MIC value is on record for Cc1ccc([Se]C(Cn2ccnc2)c2ccc(Cl)cc2Cl)cc1 (stereo unspecified)
Response given: 8 µg/mL

Challenge: Input Cc1ccc(C[Se]C(Cn2cncn2)c2ccc(F)cc2F)cc1 (stereo unspecified) , output reported MIC.
Response given: > 128 µg/mL

====

Exercise: state measured half-life for each of the compounds provided.
Assay: Metabolic stability in mouse liver microsomes assessed as half life
Assay type: ADME, Microsome

Challenge: Find the measured half-life of CCc1ccccc1[Se]C(Cn1ccnc1)c1ccc(F)cc1F (stereo not given) and report it.
Response given: 14.9 min

Challenge: Return value of half-life for input Fc1ccc([Se]C(Cn2ccnc2)c2ccc(F)cc2F)cc1 (stereo not given) , no commentary.
Response given: 19.4 min

Challenge: Provide measured half-life value, entry: Clc1ccc(C(Cn2ccnc2)[Se]Cc2ccccc2Cl)c(Cl)c1 (stereo not given)
Response given: 4.2 min

Challenge: Answer with the recorded half-life for the compound listed here: Fc1cccc([Se]C(Cn2ccnc2)c2ccc(Cl)cc2Cl)c1 (stereo not given)
Response given: 10.3 min

Challenge: Please look at this compound and report its half-life: Clc1ccc(COC(Cn2ccnc2)c2ccc(Cl)cc2Cl)c(Cl)c1 (stereo not given)
Response given: 8.3 min

====

System: Candida albicans
Test: Antifungal activity against fluconazole-resistant Candida albicans 904 assessed as inhibition of microbial growth after 24 hrs by broth microdilution method
Type: functional
quantity.kind: log10(MIC) (log10 of the value in µg/mL)
Please keep in mind that the values are log10 of MIC expressed in µg/mL.

Challenge: Provide only the value of recorded log10(MIC) for CCc1ccccc1[Se]C(Cn1ccnc1)c1ccc(Cl)cc1Cl (stereo not given)
Response given: 0.00

Challenge: Let me know recorded log10(MIC) for Clc1ccc(C(Cn2ccnc2)[Se]Cc2ccccc2Cl)c(Cl)c1 (stereo not given) , thanks.
Response given: -0.60

Challenge: Respond only with log10(MIC) recorded for COc1ccc([Se]C(Cn2ccnc2)c2ccc(Cl)cc2Cl)cc1 (stereo not given)
Response given: 0.90

Challenge: Supply recorded log10(MIC) for Cc1cccc(C)c1[Se]C(Cn1ccnc1)c1ccc(Cl)cc1Cl (stereo not given) here.
Response given: 0.90

Challenge: Identify log10(MIC) associated with the compound Fc1cccc([Se]C(Cn2ccnc2)c2ccc(F)cc2F)c1 (stereo not given)
Response given: 0.30

Challenge: Give log10(MIC) for the following compound: Fc1cccc([Se]C(Cn2ccnc2)c2ccc(Cl)cc2Cl)c1 (stereo not given)
Response given: 0.00

Challenge: Dear colleague, please send me the reported log10(MIC) for Cc1ccccc1[Se]C(Cn1ccnc1)c1ccc(F)cc1F (stereo not given) when you can.
Response given: 0.00

Challenge: For CCc1ccc([Se]C(Cn2ccnc2)c2ccc(Cl)cc2Cl)cc1 (stereo not given) , write its log10(MIC).
Response given: 1.18

Challenge: Give the reported value of log10(MIC) for this record: Fc1ccc([Se]C(Cn2ccnc2)c2ccc(Cl)cc2Cl)cc1 (stereo not given)
Response given: 0.00

Challenge: # return recorded log10(MIC) for entry COc1cccc([Se]C(Cn2ccnc2)c2ccc(Cl)cc2Cl)c1 (stereo not given)
Response given: 0.60

Challenge: Supply reported log10(MIC) belonging to this compound: Clc1ccc(C(Cn2ccnc2)[Se]c2ccccc2)c(Cl)c1 (stereo not given)
Response given: 0.30

Challenge: Give log10(MIC) for the following compound: COc1ccccc1[Se]C(Cn1ccnc1)c1ccc(Cl)cc1Cl (stereo not given)
Response given: 0.90

Challenge: Determine its reported log10(MIC): COc1ccc(C[Se]C(Cn2cncn2)c2ccc(Cl)cc2Cl)cc1 (stereo not given)
Response given: 2.11

Challenge: Read the entry Fc1ccc(C(Cn2cncn2)[Se]Cc2ccc(Cl)cc2)c(F)c1 (stereo not given) and write its reported log10(MIC).
Response given: 0.90

Challenge: Please give the documented log10(MIC) of Fc1ccc(C[Se]C(Cn2cncn2)c2ccc(F)cc2F)cc1 (stereo not given)
Response given: 1.81

Challenge: Input Fc1ccc(C(Cn2ccnc2)[Se]c2ccccc2)c(F)c1 (stereo not given) , output reported log10(MIC).
Response given: 0.00
